ASSAY TEXT: Solubility in normal saline
Format: physicochemical
EXPERIMENTAL PARAMETERS: buffer
READOUT NAME: solubility

- ClCCN(CCCl)CCOc1cccc(Nc2c3ccccc3nc3ccccc23)c1: Insoluble
- ClCCN(CCCl)CCCCOc1cccc(Nc2c3ccccc3nc3ccccc23)c1: Insoluble
- ClCCN(CCCl)CCOc1ccc(Nc2c3ccccc3nc3ccccc23)cc1: Insoluble
- ClCCN(CCCl)CCCCOc1ccc(Nc2c3ccccc3nc3ccccc23)cc1: Insoluble
- COc1cc(N)cc(Nc2c3ccccc3nc3c(OCCN(CCCl)CCCl)cccc23)c1: Insoluble
